# Tested on: EKVX NSCLC
# assay.overview: NCI-60 one-dose screen, 48 h (100 = growth as untreated, 0 = no growth, -100 = all killed)
# applied.conditions: 10 µM unless noted
Compounds without any hit were thinned out: in the full panel of roughly 83,000, 20% have a hit.
Entry flag: Fulfilled if growth reaches 80%; Not fulfilled if it does not.

# check: growth of C=CCn1cc(-c2nc3ccccc3s2)c2cc(-c3ccc4c5c(cccc35)C(=O)N(CCN3CCNCC3)C4=O)ccc21 is greater than or equal to 80%
Fulfilled

Would you say O=c1[nH]c(-c2ccccc2)nc(CN2CCCCC2)c1O shows growth at minimum 80%?
Fulfilled

Is growth for Cn1cc(-c2cnc3ccc(NC(=O)Nc4ccc(F)c(Br)c4)cc3n2)cn1 at or above 80%?
Not fulfilled

Please check the record N[C@H]1CN(C(=O)c2cc3cc(Br)c(F)c(F)c3[nH]2)C[C@@H]1O and state if its growth is at or above 80%.
Fulfilled

Evaluate Nc1cccc(-c2nc3sccn3c2-c2ccnc(NCCNS(=O)(=O)c3ccc(C(F)(F)F)cc3)n2)c1 : growth at minimum 80%?
Not fulfilled

Hello, I need to know if O=C(c1ccccc1)C1OC1c1ccc([N+](=O)[O-])cc1 (stereo not given) has measured growth not below 80%. Thanks!
Fulfilled

In plain terms: is recorded growth at least 80% for Cc1ccc(CSC(=N)N)cc1C ?
Fulfilled

Reported growth at or above 80%? O=C(Nc1ccc(NCCN2CCOCC2)nc1)c1ccc([N+](=O)[O-])cc1
Fulfilled
